Test system: A549 transfected with human cytochrome P450 reducease (CYPOR)
ASSAY_TEXT: cells
Format: cell-based
CONDITION_LABEL: Homo sapiens, A549, read-out: IC50 O2 (CYPOR)
Entries whose IC50 is below 100 µM take criterion met; entries at or above 100 µM take criterion not met.

See these solved cases before continuing.
# SMILES_STRING, GROUP_LABEL
data = [
    ("NC(=O)c1ccnc(N2CC2)c1[N+](=O)[O-]", "criterion not met"),
    ("NC(=O)c1cc([N+](=O)[O-])cnc1N1CC1", "criterion not met"),
]

query: Please indicate whether the reported IC50 of NC(=O)c1cc(N2CC2)ncc1[N+](=O)[O-] is strictly below 100 µM.
result: criterion not met

query: Determine whether this compound shows IC50 lower than 100 µM (ties excluded): NC(=O)c1cnc(N2CC2)c([N+](=O)[O-])c1
result: criterion not met

query: Does NC(=O)c1ccc([N+](=O)[O-])c(N2CC2)n1 have IC50 strictly under 100 µM?
result: criterion met

###

Recorded melting point, one value per entry.

Past entries and their recorded results:
# SMILES_STRING, MEASURE, OBS_VALUE
data = [
    ("NC(=O)c1ccc([N+](=O)[O-])c(N2CC2)n1", "melting point", "170 °C (dec.)"),
    ("NC(=O)c1cc(N2CC2)ncc1[N+](=O)[O-]", "melting point", "170 °C (dec.)"),
    ("NC(=O)c1ccnc(N2CC2)c1[N+](=O)[O-]", "melting point", "170 °C (dec.)"),
    ("NC(=O)c1cnc(N2CC2)c([N+](=O)[O-])c1", "melting point", "150 °C (dec.)"),
]

Now examine the next entry.
query: Need melting point, item NC(=O)c1cc([N+](=O)[O-])cnc1N1CC1
result: 160 °C (dec.)

###

System: human non-small cell lung cancer cell line A549
ASSAY_TEXT: SRB cell viability assay, wild-type A549, normoxic and hypoxic drug treatment
Assay type: cell-based
CONDITION_LABEL: Homo sapiens; wild-type A549, hypoxia (N2), 4 h drug treatment, then 4 days normoxic culture, SRB; mean ± SD; read-out: IC50 N2 (WT)
MEASURE: IC50 (µM)
Reply with just the number (in µM).

Known IC50 results, listed for orientation:
# COMPOUND, TGT, READOUT_UNIT, IC50
measured = [
    ("NC(=O)c1ccnc(N2CC2)c1[N+](=O)[O-] [Compound II]", "human non-small cell lung cancer cell line A549", "µM", 15.5),
    ("NC(=O)c1ccc([N+](=O)[O-])c(N2CC2)n1 [Compound V]", "human non-small cell lung cancer cell line A549", "µM", 9.4),
    ("NC(=O)c1cnc(N2CC2)c([N+](=O)[O-])c1 [Compound III]", "human non-small cell lung cancer cell line A549", "µM", 13.5),
    ("NC(=O)c1cc(N2CC2)ncc1[N+](=O)[O-] [Compound VI]", "human non-small cell lung cancer cell line A549", "µM", 5.5),
]

Attention now turns to another entry.
query: If you can, please state the reported IC50 value of NC(=O)c1cc([N+](=O)[O-])cnc1N1CC1 [Compound IV] .
result: 56.6
